- Test system: Mus musculus
- procedure.text: Phototoxicity in Swiss albino mouse assessed as erythema incidence at 140 mg/kg, po after 96 hrs of irradiation
- Format: organism-based
- Parameters: dose 140 mg/kg, route oral
- assay.conditions: in vivo
readout: Activity

                                   compound   readout  measured_value
0  O=C(O)c1c(=O)c2cc(F)c(N3CCC(O)(c4ccc(Cl)cc4)CC3)cc2n2c1sc1ccccc12  Activity       Non-toxic
1  CCn1cc(C(=O)O)c(=O)c2cc(F)c(N3CCNC(C)C3)c(F)c21 (centres undefined) [LOMEFLOXACIN]  Activity           Toxic
2  O=C(O)c1c(=O)c2cc(F)c(N3CCC4(CC3)OCCO4)cc2n2c1sc1ccccc12  Activity       Non-toxic
3  CCN(CC)C(=O)C1CCCN(c2cc3c(cc2F)c(=O)c(C(=O)O)c2sc4ccccc4n23)C1 (centres undefined)  Activity       Non-toxic

* * *

- Test system: Mus musculus
- procedure.text: Phototoxicity in Swiss albino mouse assessed as ear thickness at 140 mg/kg, po after 96 hrs of irradiation
- Format: organism-based
- Set-up: dose 140 mg/kg, route oral
- assay.conditions: in vivo
readout: Activity (mm)
The reply should be a number in mm, with the unit left off.

Enquiry: Answer with Activity of O=C(O)c1c(=O)c2cc(F)c(N3CCC4(CC3)OCCO4)cc2n2c1sc1ccccc12 measured for Mus musculus.
Return: 0.3

Enquiry: Answer with Activity of CCN(CC)C(=O)C1CCCN(c2cc3c(cc2F)c(=O)c(C(=O)O)c2sc4ccccc4n23)C1 (centres undefined) measured for Mus musculus.
Return: 0.28

Enquiry: Answer with Activity of CCn1cc(C(=O)O)c(=O)c2cc(F)c(N3CCNC(C)C3)c(F)c21 (centres undefined) [LOMEFLOXACIN] measured for Mus musculus.
Return: 0.6

Enquiry: Answer with Activity of O=C(O)c1c(=O)c2cc(F)c(N3CCC(O)(c4ccc(Cl)cc4)CC3)cc2n2c1sc1ccccc12 measured for Mus musculus.
Return: 0.3

* * *

- System: Mus musculus
- procedure.text: Phototoxicity in Swiss albino mouse assessed as erythema incidence at 140 mg/kg, po after 48 hrs of irradiation
- Assay type: organism-based
- Design: dose 140 mg/kg, route oral
- assay.conditions: in vivo
readout: Activity

In [3]: df
Out[3]:
                                   compound  measured_value
0  O=C(O)c1c(=O)c2cc(F)c(N3CCC4(CC3)OCCO4)cc2n2c1sc1ccccc12       Non-toxic
1  O=C(O)c1c(=O)c2cc(F)c(N3CCC(O)(c4ccc(Cl)cc4)CC3)cc2n2c1sc1ccccc12       Non-toxic
2  CCN(CC)C(=O)C1CCCN(c2cc3c(cc2F)c(=O)c(C(=O)O)c2sc4ccccc4n23)C1 (centres undefined)       Non-toxic
3  CCn1cc(C(=O)O)c(=O)c2cc(F)c(N3CCNC(C)C3)c(F)c21 (centres undefined)           Toxic

* * *

- Test system: Mus musculus
- procedure.text: Phototoxicity in Swiss albino mouse assessed as ear thickness at 140 mg/kg, po after 24 hrs of irradiation
- Assay type: organism-based
- Design: dose 140 mg/kg, route oral
- assay.conditions: in vivo
readout: Activity (mm)
The reply should be a number in mm, with the unit left off.

Here's what some known entries look like.
In [3]: df
Out[3]:
                                   compound  measured_value
0  O=C(O)c1c(=O)c2cc(F)c(N3CCC4(CC3)OCCO4)cc2n2c1sc1ccccc12            0.31
1  CCn1cc(C(=O)O)c(=O)c2cc(F)c(N3CCNC(C)C3)c(F)c21 (centres undefined)            0.48
2  O=C(O)c1c(=O)c2cc(F)c(N3CCC(O)(c4ccc(Cl)cc4)CC3)cc2n2c1sc1ccccc12            0.31

Enquiry: Supply measured Activity of CCN(CC)C(=O)C1CCCN(c2cc3c(cc2F)c(=O)c(C(=O)O)c2sc4ccccc4n23)C1 (centres undefined) in your reply.
Return: 0.29
